What IC50 was measured for each of the following?
- tested on: UniProt:P21589
- Format: biochemical
- conditions: 1 mM NaH2PO4 in enzyme buffer, CD73 0.3 nM, AMP 15 uM
Response body: numeric value in nM, unit text excluded.

Ask: I have this molecule here, CNC(=O)c1cccc([C@H]2C[C@@H]2c2cc(-c3c[nH]c(=O)[nH]c3=O)nn3ccnc23)c1 (racemic) , and I need its recorded IC50.
Reply: 1.19

Ask: I have this molecule here, O=c1[nH]cc(-c2cc([C@H]3C[C@@H]3c3ccc4cnc(CC(F)(F)F)n4c3)c3nccn3n2)c(=O)[nH]1 (racemic) , and I need its recorded IC50.
Reply: 1.26

Ask: I have this molecule here, `N#Cc1c(F)cc([C@H]2C[C@@H]2c2cc(-c3c[nH]c(=O)[nH]c3=O)nn3ccnc23)cc1F` , and I need its recorded IC50.
Reply: 1.71

----------
- tested on: CD73 (Homo sapiens (Human), UniProt P21589)
- Sequence (P21589 27-574): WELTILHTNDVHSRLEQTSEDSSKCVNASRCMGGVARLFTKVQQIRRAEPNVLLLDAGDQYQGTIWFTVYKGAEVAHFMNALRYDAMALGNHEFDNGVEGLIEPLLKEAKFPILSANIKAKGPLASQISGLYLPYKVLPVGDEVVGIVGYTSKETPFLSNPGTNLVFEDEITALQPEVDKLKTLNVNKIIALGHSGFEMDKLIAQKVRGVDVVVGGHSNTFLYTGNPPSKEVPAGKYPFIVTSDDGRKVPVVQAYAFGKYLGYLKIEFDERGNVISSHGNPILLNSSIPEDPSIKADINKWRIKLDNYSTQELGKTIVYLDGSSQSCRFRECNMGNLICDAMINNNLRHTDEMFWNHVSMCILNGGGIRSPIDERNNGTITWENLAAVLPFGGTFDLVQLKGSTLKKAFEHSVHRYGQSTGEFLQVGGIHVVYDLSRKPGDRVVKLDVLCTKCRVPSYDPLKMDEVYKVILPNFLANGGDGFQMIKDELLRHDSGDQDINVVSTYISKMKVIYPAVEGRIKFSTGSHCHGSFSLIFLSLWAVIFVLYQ
- protocol notes: CD73 Biochemical IC50 Assay
- conditions: CD73 0.3 nM, AMP 15 uM, 25 mM Tris pH 7.4, 5 mM MgCl2
endpoint label: pIC50
A value of pIC50 is the negative decimal logarithm of a concentration given in moles per litre.

Ask: I have this molecule here, O=c1[nH]cc(-c2cc([C@H]3C[C@@H]3c3cccc(C(F)(F)F)c3)c3nccn3n2)c(=O)[nH]1 (racemic) , and I need its recorded pIC50.
Reply: 7.21

Ask: I have this molecule here, O=c1[nH]cc(-c2cc([C@H]3C[C@@H]3c3ccc(C4CC4)cc3)c3nccn3n2)c(=O)[nH]1 (racemic) , and I need its recorded pIC50.
Reply: 7.49

Ask: I have this molecule here, `O=c1[nH]cc(-c2cc(N3CC4CCC(C4)C3)c3nccn3n2)c(=O)[nH]1` , and I need its recorded pIC50.
Reply: 6.88

Ask: I have this molecule here, `Cc1cn2nc(-c3c[nH]c(=O)[nH]c3=O)cc(C3CC3)c2n1` , and I need its recorded pIC50.
Reply: 6.30

Ask: I have this molecule here, O=c1[nH]cc(-c2cc([C@H]3C[C@@H]3c3ccc(F)cc3)c3nc(C4CC4)cn3n2)c(=O)[nH]1 (racemic) , and I need its recorded pIC50.
Reply: 6.82

Ask: I have this molecule here, `CC1(C)CN(c2cc(-c3c[nH]c(=O)[nH]c3=O)nn3ccnc23)C1` , and I need its recorded pIC50.
Reply: 7.15

----------
- tested on: CD73 (Homo sapiens (Human), UniProt P21589)
- Format: biochemical
- conditions: 1 mM NaH2PO4 in enzyme buffer, CD73 0.3 nM, AMP 15 uM
endpoint label: pIC50
A value of pIC50 is the negative decimal logarithm of a concentration given in moles per litre.

Ask: I have this molecule here, O=c1[nH]cc(-c2cc(N3CC(F)(F)C4(CN(Cc5cccc(F)c5)C4)C3)c3nccn3n2)c(=O)[nH]1 [Example 502] , and I need its recorded pIC50.
Reply: 8.04

Ask: I have this molecule here, O=c1[nH]cc(-c2cc([C@H]3C[C@@H]3c3ccc4ccc(=O)n(CC(F)(F)F)c4c3)c3nccn3n2)c(=O)[nH]1 (racemic) [Example 598] , and I need its recorded pIC50.
Reply: 8.95

Ask: I have this molecule here, COCCn1cc(-c2cc(-c3c[nH]c(=O)[nH]c3=O)nn3ccnc23)cn1 [Example 510] , and I need its recorded pIC50.
Reply: 6.61

Ask: I have this molecule here, O=c1[nH]cc(-c2cc([C@H]3C[C@@H]3c3ccc4ccc(OCC(F)(F)F)nc4c3)c3nccn3n2)c(=O)[nH]1 (racemic) [Example 599] , and I need its recorded pIC50.
Reply: 8.62

Ask: I have this molecule here, CNC(=O)c1cccc(C2CCN(c3cc(-c4c[nH]c(=O)[nH]c4=O)nn4ccnc34)C2)c1 (stereo not drawn) [Example 269] , and I need its recorded pIC50.
Reply: 8.44

Ask: I have this molecule here, O=C(c1cccc([C@H]2C[C@@H]2c2cc(-c3c[nH]c(=O)[nH]c3=O)nn3ccnc23)c1)N1C[C@@H](F)[C@@H](F)C1 (racemic) [Example 302] , and I need its recorded pIC50.
Reply: 8.51

Ask: I have this molecule here, O=c1[nH]cc(-c2cc([C@H]3C[C@@H]3c3cnc4c(C(F)(F)F)cccc4c3)c3nccn3n2)c(=O)[nH]1 [Example 395] , and I need its recorded pIC50.
Reply: 8.68

Ask: I have this molecule here, O=c1[nH]cc(-c2cc([C@H]3C[C@@H]3c3cc(C(F)(F)F)c4ncccc4c3)c3nccn3n2)c(=O)[nH]1 (racemic) [Example 141] , and I need its recorded pIC50.
Reply: 8.68

Ask: I have this molecule here, CN(C)C(=O)c1ccc([C@H]2C[C@@H]2c2cc(-c3c[nH]c(=O)[nH]c3=O)nn3ccnc23)cc1 (racemic) [Example 288] , and I need its recorded pIC50.
Reply: 8.16

Ask: I have this molecule here, N#Cc1ccc([C@H]2C[C@@H]2c2cc(-c3c[nH]c(=O)[nH]c3=O)nn3ccnc23)c(F)c1 (racemic) [Example 407] , and I need its recorded pIC50.
Reply: 8.72

Ask: I have this molecule here, O=c1[nH]cc(-c2cc(N3CCC(c4ccccc4C(F)(F)F)C3)c3nccn3n2)c(=O)[nH]1 (stereo not drawn) [Example 250] , and I need its recorded pIC50.
Reply: 6.96

Ask: I have this molecule here, O=c1[nH]cc(-c2cc(OCC(F)(F)COc3ccccn3)c3nccn3n2)c(=O)[nH]1 [Example 695] , and I need its recorded pIC50.
Reply: 8.74
